Cited source for all entries: ChEMBL document CHEMBL1287702

- experiment-notes: Antiproliferative activity against mouse NIH/3T3 cells assessed as growth inhibition after 48 hrs by MTS-PMS assay
- Type: cell-based, NIH3T3
- condition-set: Mus musculus, NIH3T3, 48 h; read-out: IC50
Would you mind telling me the reported pIC50 of each entry?
# pIC50 is unitless: minus log10 of the molar concentration; print number only

Ask | Could you share which pIC50 value was measured for `C=C1CC[C@@H]2[C@](C)(CO)[C@H](O)CC[C@@]2(C)[C@@H]1C/C=C1/C(=O)OC[C@H]1OC(=O)CCCC(=O)O` ?
Reply | 4.66

Ask | Tell me the measured pIC50 of C=C1CC[C@@H]2[C@](C)(CO)[C@H](O)CC[C@@]2(C)[C@@H]1C/C=C1/C(=O)OC[C@H]1O [ANDROGRAPHOLIDE] , please.
Reply | 4.35

Ask | What does the data say about its pIC50? Entry: `C=C1CC[C@@H]2[C@](C)(CO)[C@H](O)CC[C@@]2(C)[C@@H]1C/C=C1/C(=O)OC[C@H]1OC(=O)/C=C\C(=O)O`
Reply | 4.95

Ask | Which value of pIC50 has been reported for `C=C1CC[C@@H]2[C@]3(C)COC(C)(C)O[C@@H]3CC[C@@]2(C)[C@@H]1C/C=C1/C(=O)OC[C@H]1OC(=O)CCC(=O)O` in the records?
Reply | 4.44

Ask | Could you tell me which pIC50 is on file for `C=C1CC[C@@H]2[C@]3(C)COC(C)(C)O[C@@H]3CC[C@@]2(C)[C@@H]1C/C=C1/C(=O)OC[C@H]1OC(=O)c1ccccc1C(=O)O` ?
Reply | 4.80

Ask | Tell me the measured pIC50 of `C=C1CC[C@@H]2[C@](C)(CO)[C@H](O)CC[C@@]2(C)[C@@H]1C/C=C1/C(=O)OC[C@H]1OC(=O)CCC(=O)O` , please.
Reply | 4.99

Ask | # input compound: `C=C1CC[C@@H]2[C@](C)(CO)[C@H](O)CC[C@@]2(C)[C@@H]1C/C=C1/C(=O)OC[C@H]1OC(=O)c1ccccc1C(=O)O` ; wanted: its pIC50
Reply | 5.10
